Measured pIC50 accompanies every entry in the list below.
# Tested on: A-375
# assay_details: Antiproliferative activity against human A375 cells after 48 hrs by MTT assay
# Assay type: functional, cell-based
# test_parameters: A-375, 48 h
Remember, pIC50 is on a log scale: it is -log10 of the molar concentration.

structure_notation=CC[C@H](C)[C@H](NC(=O)Cc1cccc(C(F)(F)F)c1)C(=O)N[C@@H](CC(C)C)C(=O)N[C@@H](CC(C)C)C(=O)N[C@@H](C)/C=C/C(=O)N1C(=O)C=C(OC)[C@@H]1C(C)C result_number=4.82
structure_notation=CC[C@H](C)[C@H](NC(=O)OCc1ccccc1)C(=O)N[C@@H](CC(C)C)C(=O)N[C@@H](CC(C)C)C(=O)N[C@@H](C)/C=C/C(=O)N1C(=O)C=C(OC)[C@@H]1C result_number=5.87

Now look at this one.
Ask: Hello, please tell me recorded pIC50 for this one: CC[C@H](C)[C@H](NC(=O)OCc1ccccc1)C(=O)O[C@@H](CC(C)C)C(=O)N[C@@H](CC(C)C)C(=O)N[C@@H](C)/C=C/C(=O)N1C(=O)C=C(OC)[C@@H]1Cc1ccccc1
Result: 4.34
